For each record, write down the corresponding inhibition.
test: inhibitors of TNFa-induced NFkB p65 translocation, primary screen, imaging, HUVEC, MLSMR starter and 10KST1 sets (AID 438); details: HUVEC TNFa-induced p65 nuclear translocation; at 2 µM, stronger effect = higher value, 0% TNFa-plus-vehicle, 100% no-TNFa wells;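 note: compound added about 3h40 before a 20 min TNFalpha stimulation; signal is the nuclear over cytoplasmic p65 intensity ratio per well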
Answers are plain numbers, in %.

Below are worked cases with known answers.
molecule	resultUnits	inhibition
Cc1cccc(NC(=O)CCCCCN2C(=O)c3ccccc3C2=O)n1	%	-4.8
CN(CCNC(=O)c1ccc(N2CCCC2=O)cc1)CCc1ccccc1	%	-24

Consider now this further molecule.
Please report the recorded inhibition for COc1cc(C2C(C(=O)c3ccc(C)o3)=C(O)C(=O)N2c2cc(C)on2)cc(Br)c1O (stereo not drawn) . -16.4

###

test: endothelial E-selectin expression blockers – imaging, HUVEC, immunofluorescence, MLSMR starter and 10KST1 sets, primary screen (AID 487); conditions: HUVEC TNFalpha-induced E-selectin immunofluorescence imaging, at 2 µM; measured here: cell number, toxicity;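 for nuclei count: 100% = median nuclei count of all wells on the same plate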
For each record, write down the corresponding nuclei count.
One number for each entry, in %.

Below are worked cases with known answers.
Cc1nc(NC2=NCN(CCc3ccccc3)CN2)nc2c(C)cccc12 104
C=C(c1cccc2ccccc12)P(=O)(O)O 99.8
CCOc1cc(N2CCOCC2)c(OCC)cc1NC(=O)COC(=O)CCc1c[nH]c2ccccc12 109

Consider now this further molecule.
Please report the recorded nuclei count for O=C1c2ccccc2C(=O)N1CCN1CCCCC1 . 117

###

For each record, write down the corresponding inhibition.
experiment: blockers of RIG-like receptor reporter activation – cell-based, Sendai virus stimulus, luciferase, 10K MLSCN set, TLR/RLR signaling modifier project, primary screen (AID 602276); settings: HEK293 RL24 IRF3 luciferase reporter, at 10 µM, stronger effect = higher value;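 note: firefly luciferase from ISG56 promoter only with Renilla not read in this screen; 0% = Sendai virus plus DMSO and 100% = medium plus DMSO without virus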
Give bare numbers, in %.

molecule	inhibition (%)
O=c1[nH]c(SCc2cc(=O)n3ccccc3n2)nc2c1CCC2	16.7

Each molecule below has a reported value. Please supply its inhibition.
1. Cc1cc(C(F)F)n2nc(C(=O)Nc3ccc(S(=O)(=O)N4CCCCCC4)cc3)nc2n1
2. COc1ccc(S(=O)(=O)NCCSCc2ccco2)cc1Cl
3. Cc1ccc(OC(=O)NC2CCS(=O)(=O)C2)cc1C (centres undefined)

1. 17.7
2. 20.4
3. 12.7

###

assay: blockers of RIG-like receptor reporter activation – cell-based, Sendai virus stimulus, luciferase, 10K MLSCN set, TLR/RLR signaling modifier project, primary screen (AID 602276); details: HEK293 RL24 IRF3 luciferase reporter, at 10 µM, stronger effect = higher value;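 note: firefly luciferase from ISG56 promoter only with Renilla not read in this screen; 0% = Sendai virus plus DMSO and 100% = medium plus DMSO without virus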
For each record, write down the corresponding inhibition.
Answers are plain numbers, in %.

Below are worked cases with known answers.
compound	inhibition [%]
CS(=O)(=O)N(CC(=O)Nc1ccc2c(c1)OCCO2)Cc1ccccc1	8.2
O=C1CCN(C(=O)c2ccccc2)C2CCCCC12 (centres undefined)	-7.18
COc1ccc(CCN2C(=O)C3C4C=CC(C4)C3C2=O)cc1OC (centres undefined)	10.2

Each compound below has a reported value. Please supply its inhibition.
1. CCOc1cc2oc(=O)c3c(c2cc1Cl)CCC3
2. COc1cc(S(=O)(=O)NC2CCCCC2)ccc1Cl
3. Cc1ccc(NC(=O)Cn2cccc2)cc1Cl
4. CCC1C(=O)n2nc(-c3ccccc3)cc2N=C1C (centres undefined)

1. -5.28
2. 16.6
3. 8.59
4. -22

###

test: endothelial E-selectin expression blockers – imaging, HUVEC, immunofluorescence, MLSMR starter and 10KST1 sets, primary screen (AID 487); conditions: HUVEC TNFalpha-induced E-selectin immunofluorescence imaging, at 2 µM
Active and inactive are the calls of the source.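 Rule for the calls: active = visually confirmed hit in the image check and inhibition above 20%; inconclusive = visually confirmed hit but inhibition not above 20%; inactive = no visual hit in the image check.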
The reply should be one of these categories: 1 for active, -1 for inactive

Solved cases (5 shown):
molecule	assignedLabel
Cn1cccc1Cc1nnc(SCC(N)=O)n1-c1ccc(F)cc1	-1
COc1cccc(C2CC(c3ccc(C)cc3)Nc3nc(N)nn32)c1 (stereo not drawn)	-1
COc1ccc(OC)c(NC(=O)CS(=O)(=O)c2ccccc2)c1	-1
c1cnc(NCCNc2ncccn2)nc1	-1
CCOC(=O)c1sc(NC(=O)c2c(C)nn(Cc3ccccc3)c2C)cc1C	-1

Hey, what did the test say about Cc1nc2ccccc2nc1OCC(=O)Nc1cc(C(F)(F)F)ccc1N1CCOCC1 ? 1

Hey, what did the test say about CC(C)[C@H](NC(=O)NCc1ccc(Cl)cc1)C(=O)O ? -1

Hey, what did the test say about O=C(Cn1c(=O)n(Cc2ccc3c(c2)OCO3)c(=O)c2ccccc21)N1CCCc2ccccc21 ? -1

###

assay: inhibitors of TNFa-induced NFkB p65 translocation, primary screen, imaging, HUVEC, MLSMR starter and 10KST1 sets (AID 438); settings: HUVEC TNFa-induced p65 nuclear translocation; at 2 µM, stronger effect = higher value, 0% TNFa-plus-vehicle, 100% no-TNFa wells;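 note: compound added about 3h40 before a 20 min TNFalpha stimulation; signal is the nuclear over cytoplasmic p65 intensity ratio per well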
For each record, write down the corresponding inhibition.
Answers are plain numbers, in %.

compound	inhibition (%)
Cc1sc2ncnc(OCC(=O)N3CCN(S(=O)(=O)c4ccccc4)CC3)c2c1C	-7.7
COc1ccc(CCNC(=O)CN(c2ccccc2OC)S(C)(=O)=O)cc1	-3.4
COc1ccc2c(c1)C1(Nc3ccccc3-c3nc4ccccc4n31)C(=O)N2 (centres undefined)	5.7

Consider now this further compound.
Please report the recorded inhibition for Cc1ccc(C(O)c2nc3ccccc3n2C(C)C)cc1 (centres undefined) . -3.7

###

experiment: TLR3 IRF3 reporter activation blockers – cell-based, poly I:C stimulus, luciferase, 10K MLSCN set, primary screen (AID 602277); settings: HEK293-TLR3 RL24 IRF3 luciferase reporter, at 10 µM, stronger effect = higher value
measuredParameter: inhibition (%)
One number for each entry, in %.

Below are worked cases with known answers.
compound	inhibition / %
Cc1cc(C)c2c(n1)nn1c(NCCCN3CCOCC3)cc(C)nc21	21.2
COc1cc2c(cc1NC(=O)CSc1nnc(Cc3cccs3)n1C)oc1ccccc12	5.76
N#CC1=C(N)OC2=C(CCC/C2=C/c2ccoc2)C1c1ccoc1 (centres undefined)	-9.08
Cc1onc(-c2ccccc2)c1C(=O)N1CCN(C(=O)c2ccco2)CC1	20.5
O=C(COC(=O)c1ccccc1C(=O)c1ccccc1)c1ccco1	2.21
Cc1nc(NC(=O)C2CC3CCCC(C2)C3=O)sc1C (centres undefined)	-87.2
COc1ccc(-n2c(Cc3cccn3C)nnc2SCC(=O)Nc2cccc(Cl)c2)cc1	19.5
N#C/C(C(=O)c1ccccc1)=C1/CCCN1	-17.4
COc1ccccc1N(CC(=O)NC1CCCC1)C(=O)c1csnn1	1.68
CCCc1cc(Nc2cccc(OC)c2)n2ncnc2n1	16.3

Each compound below has a reported value. Please supply its inhibition.
1. CC12CCC(C(=O)N3CCN(C(=O)C45CCC(C)(C(=O)O4)C5(C)C)CC3)(OC1=O)C2(C)C
2. CCOc1nc(NCCC2=CCCCC2)nc(N2CCOCC2)n1

[99.3, 5.8]

Each compound below has a reported value. Please supply its inhibition.
1. CCC(=NC(C)c1ccccc1)c1c(O)n(C)c(=O)n(C)c1=O (centres undefined)
2. CCOc1ccccc1Nc1nnc(SCC(=O)N2CCCC2)s1

1. -40
2. 12.3

###

experiment: inhibitors of TNFa-induced NFkB p65 translocation, primary screen, imaging, HUVEC, MLSMR starter and 10KST1 sets (AID 438); details: HUVEC TNFa-induced p65 nuclear translocation; at 2 µM, stronger effect = higher value, 0% TNFa-plus-vehicle, 100% no-TNFa wells;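 note: compound added about 3h40 before a 20 min TNFalpha stimulation; signal is the nuclear over cytoplasmic p65 intensity ratio per well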
For each record, write down the corresponding inhibition.
Numbers only, in %.

Below are worked cases with known answers.
compound	inhibition [%]
Cc1ccc(OC(=O)CCC(=O)OCCCC(F)(F)C(F)(F)F)cc1	-3
CCCCN1CN(S(=O)(=O)c2cccs2)c2nc3ccccc3nc21	-13
CCc1cccc(NC(=O)CN(C)S(=O)(=O)c2cccc3nsnc23)c1	-6.3
CC(=O)Nc1ccccc1-c1nc2ccc(C(=O)N3CCN(c4ccccc4)CC3)cc2[nH]c1=O	14.7
COC(=O)c1ccc(CSc2nnnn2Cc2ccccc2)cc1	3
CCc1cc(C)cc(OCCNC(=O)c2ncn[nH]2)c1	3
O=C(Nc1ccc2oc(Cc3ccc(Cl)cc3)nc2c1)c1cccnc1	6.7
CCOC(=O)c1sc(NC(=O)c2c(C)nn(Cc3ccccc3)c2C)cc1C	-7.8
CNC(=O)CSc1nc2c(c(=O)n(C)c(=O)n2C)n1Cc1ccc(C)cc1	4
O=C(O)c1ccc(S(=O)(=O)Cc2ccccc2)cc1	11.4

Each compound below has a reported value. Please supply its inhibition.
1. CCOC(=O)c1oc2cc(OCC(N)=O)ccc2c(=O)c1-c1ccc(OC)c(OC)c1
2. CCOc1ccc2[nH]c(=O)c(CN(CCOC)C(=O)N3CCOCC3)cc2c1
3. O=C(CN1C(=O)COCC1=O)N1CCOCC1
4. CC(OC(=O)c1ccco1)C(=O)NCc1cccs1 (configuration not stated)

1. 8.1
2. 2.4
3. -7
4. -4.4

Each compound below has a reported value. Please supply its inhibition.
1. CCCN(S(=O)(=O)c1ccc(OCC)cc1)S(=O)(=O)c1cccs1
2. CCC(=O)c1ccc(OC(=O)c2ccc(Br)o2)cc1
3. CN(C)S(=O)(=O)c1ccc2c(c1)C(CC(=O)O)OC2=O (configuration not stated)

1: 7.4; 2: 6.8; 3: 2.3
